Assignment: determine reported MIC for the given compounds.

Q: Give reported MIC for CCCCCCOc1c(OC)cc(NC(C)CCCNC(=O)C(C)N)c2nc(C(C)(C)C)ccc12 (stereo not shown) [compound 107] (C. neoformans ATCC90113)
Ans: > 20 mg/L

Q: Give reported MIC for CCCCCCCCOc1c(OC)cc(NC(C)CCCNC(=O)C(N)Cc2cc3ccccc3[nH]2)c2nc(C(C)(C)C)ccc12 (stereo not shown) [compound 122] (C. neoformans ATCC90113)
Ans: 20 mg/L

Q: Give reported MIC for CCCCOc1c(OC)cc(NC(C)CCCNC(=O)C(N)CCCN)c2nc(C(C)(C)C)ccc12 (stereo not shown) [compound 91] (C. neoformans ATCC90113)
Ans: > 20 mg/L

Q: Give reported MIC for CCCCCCCOc1c(OC)cc(NC(C)CCCN)c2nc(C(C)(C)C)cc(C)c12 (stereo not shown) [compound 53] (C. neoformans ATCC90113)
Ans: 1.25 mg/L

====

MEASURE NAME: MIC (µg/mL)
Value expressed in µg/mL; do not type the unit.

Q: Give reported MIC for CCCCCCCOc1c(OC)cc(NC(C)CCCNC(=O)C(N)Cc2ccccc2)c2nc(C(C)(C)C)ccc12 (stereo not shown) (C. neoformans ATCC90113)
Ans: 5

Q: Give reported MIC for CCCCCCCCOc1c(OC)cc(NC(C)CCCNC(=O)C(N)CCSC)c2nc(C(C)(C)C)ccc12 (stereo not shown) (C. neoformans ATCC90113)
Ans: 5

====

Assignment: determine reported IC50 (concentration that affords 50% growth inhibition), M. intracellulare for the given compounds.
# Tested on: M. intracellulare (ATCC23068)
# TEST SUMMARY: in vitro antibacterial activity, modified alamarBlue procedure
# Type: cell-based, Mycobacterium intracellulare
# STATED CONDITIONS: highest test concentration 20 μg/mL
Value expressed in µg/mL; do not type the unit.

Q: Give reported IC50 (concentration that affords 50% growth inhibition), M. intracellulare for CCCCCCCCOc1c(OC)cc(NC(C)CCCNC(=O)C(N)CCCN)c2nc(C(C)(C)C)ccc12 (stereo not shown) (M. intracellulare (ATCC23068))
Ans: 7.71

Q: Give reported IC50 (concentration that affords 50% growth inhibition), M. intracellulare for CCCCCCCOc1c(OC)cc(NC(C)CCCNC(=O)C2CCCN2)c2nc(C(C)(C)C)ccc12 (stereo not shown) (M. intracellulare (ATCC23068))
Ans: 16.67

Q: Give reported IC50 (concentration that affords 50% growth inhibition), M. intracellulare for CCCCCCOc1c(OC)cc(NC(C)CCCNC(=O)C2CCCN2)c2nc(C(C)(C)C)ccc12 (stereo not shown) (M. intracellulare (ATCC23068))
Ans: 5.94

====

# System: MRSA (ATCC33591)
# TEST SUMMARY: in vitro antibacterial activity
# Assay type: cell-based, methicillin-resistant Staphylococcus aureus
# STATED CONDITIONS: methicillin-resistant S. aureus; highest test concentration 20 μg/mL
MEASURE NAME: IC50 (concentration that affords 50% growth inhibition), MRSA (µg/mL)
Value expressed in µg/mL; do not type the unit.

Q: Fill in reported IC50 (concentration that affords 50% growth inhibition), MRSA for this entry: CCCCCCOc1c(OC)cc(NC(C)CCCNC(=O)C2CCCN2)c2nc(C(C)(C)C)ccc12 (stereo not shown)
Ans: 2.64

Q: Fill in reported IC50 (concentration that affords 50% growth inhibition), MRSA for this entry: CCCCCCCOc1c(OC)cc(NC(C)CCCNC(=O)C2CCCN2)c2nc(C(C)(C)C)ccc12 (stereo not shown)
Ans: 3.16
